- ASSAYED_TARGET: MAP3K5 (human)
- TEST_METHOD_NOTES: radiometric filter-binding kinase assay
- PARTICULARS: compound 10.0 µM
READOUT_LABEL: residual activity (%)

NC1(c2ccc(-c3nc4ccn5c(=O)[nH]nc5c4cc3-c3ccccc3)cc2)CCC1 = 90
O=C(N[C@@H](COc1ccc2[nH]c(=O)[nH]c2c1)c1ccccc1)c1cccn(Cc2ccc(F)c(F)c2)c1=O = 92
Cc1ccc2c(c1)C(=O)[C@@]1(O)CCN(c3ccccc3)C1=N2 = 91

###

- System: AKT1 (human), P31749 [S473D]
- Sequence (P31749 whole entry S473D, looked up): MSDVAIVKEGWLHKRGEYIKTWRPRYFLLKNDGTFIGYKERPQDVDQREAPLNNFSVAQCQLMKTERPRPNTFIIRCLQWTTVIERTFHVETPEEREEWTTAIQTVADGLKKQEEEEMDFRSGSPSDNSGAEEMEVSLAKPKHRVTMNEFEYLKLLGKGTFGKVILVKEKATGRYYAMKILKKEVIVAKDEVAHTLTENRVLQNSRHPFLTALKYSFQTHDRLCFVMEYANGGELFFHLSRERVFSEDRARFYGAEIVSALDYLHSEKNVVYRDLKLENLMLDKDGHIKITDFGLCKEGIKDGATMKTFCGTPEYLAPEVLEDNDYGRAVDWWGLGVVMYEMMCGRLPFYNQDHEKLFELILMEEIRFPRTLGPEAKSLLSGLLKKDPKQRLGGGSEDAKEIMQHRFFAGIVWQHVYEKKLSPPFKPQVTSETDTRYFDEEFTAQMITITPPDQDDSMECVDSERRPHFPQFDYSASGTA
- TEST_METHOD_NOTES: radiometric filter-binding kinase assay
- PARTICULARS: compound 1.0 µM
READOUT_LABEL: residual activity

O=C1NC(=S)N[C@@H]1Cc1c[nH]c2ccccc12 = 87%
CNc1nc(-c2ccc3c(N)n[nH]c3c2)cc(N2C[C@@H](C(=O)NC3CCCCC3)CC[C@H]2C)n1 = 98%
NC(=O)Nc1ccc2c(c1)/C(=C/c1cc(-c3cccnc3)c[nH]1)C(=O)N2 = 69%
COc1ccc(-n2ncc3cnc(Nc4cc(OC)c(OC)c(OCCCN5CCN(C)CC5)c4)nc32)cc1 = 89%
NC(=O)c1cc2c(-c3cccc(-c4ccccc4)c3)cnc(N)c2s1 = 104%
O=C(NCCCNc1nc(Nc2cccc(CN3CCOCC3)c2)ncc1C1CC1)C1CCC1 = 93%
NC1(c2ccc(-c3nc4ccn5c(=O)[nH]nc5c4cc3-c3ccccc3)cc2)CCC1 = 96%
Oc1ccc(/C=C/c2cc(O)cc(O)c2)cc1 = 82%
COc1cc(O)c2c(c1)[C@H]1OC1C[C@H](O)[C@H](O)C(=O)/C=C\C[C@H](C)OC2=O (stereo partly specified) = 107%
COc1cc2ncn(-c3cc(OCc4ccccc4S(C)(=O)=O)c(C#N)s3)c2cc1OC = 98%
NCC(=O)Nc1ccc(-n2nc(C(F)(F)F)cc2-c2ccc3c(ccc4ccccc43)c2)cc1 = 91%
